- experiment-summary: Cytotoxicity against human A549 cells assessed as cell survival at 7.8 ug/mL after 24 hrs by resazurin-based fluorescence assay
- condition: read-out: Survival
measure-name: viability at 24 h, 7.8 ug/mL

Would you mind telling me what viability at 24 h, 7.8 ug/mL value was observed for CCCCCCCCCCCCN1CCN(CC(O)(Cn2cncn2)c2ccc(F)cc2F)CC1 (stereo unspecified) ?
< 40%

* * *

- System: Aspergillus terreus
- experiment-summary: Antifungal activity against Aspergillus terreus ATCC MYA-3633 after 48 hrs by broth dilution method
- Assay type: functional
- condition: Aspergillus terreus, ATCC MYA-3633, 48 h
For each of the compounds below, state its MIC.

Consider the following illustrative entries.
- compound: "CCCCCCCCCN1CCN(CC(O)(Cn2cncn2)c2ccc(F)cc2F)CC1 (configuration not stated)"
  MIC: "4.4 µM"
- compound: "OC(CNCCN1CCOCC1)(Cn1cncn1)c1ccc(F)cc1F (configuration not stated)"
  MIC: "> 85.2 µM"
- compound: "CC[C@H](C)C[C@H](C)CCCCCCCCC(=O)N[C@H]1C[C@@H](O)[C@@H](NCCN)NC(=O)[C@@H]2[C@@H](O)CCN2C(=O)[C@H]([C@H](O)CCN)NC(=O)[C@H]([C@H](O)[C@@H](O)c2ccc(O)cc2)NC(=O)[C@@H]2C[C@@H](O)CN2C(=O)[C@H]([C@@H](C)O)NC1=O"
  MIC: "> 25.8 µM"
- compound: "CCCCCCCCCCCCCCN1CCOCC1"
  MIC: "> 110 µM"

Consider the following items and state reported MIC for each.
1. OC(CN1CCOCC1)(Cn1cncn1)c1ccc(F)cc1F (configuration not stated)
2. CCCCCN1CCNCC1
3. CCCCCCCCCCCCCN1CCNCC1
4. CCCCCCCCCCCCN1CCN(CC(O)(Cn2cncn2)c2ccc(Cl)cc2Cl)CC1 (configuration not stated)

1: 48.1 µM; 2: > 200 µM; 3: 7.2 µM; 4: 3.7 µM

Consider the following items and state reported MIC for each.
1. CN1CCN(CC(O)(Cn2cncn2)c2ccc(F)cc2F)CC1 (configuration not stated)
2. CCCCCCCCCCCCN1CCN(CC(O)(Cn2cncn2)c2ccc(F)cc2F)CC1 (configuration not stated)
3. CCCCCCCCCCCCCCN1CCN(CC(O)(Cn2cncn2)c2ccc(F)cc2F)CC1 (configuration not stated)
4. CCCCCCCCCCN1CCN(CC(O)(Cn2cncn2)c2ccc(Cl)cc2Cl)CC1 (configuration not stated)

92.8 µM
7.9 µM
1.9 µM
7.9 µM

* * *

- Tested on: Aspergillus flavus
- experiment-summary: Antifungal activity against Aspergillus flavus ATCC MYA-3631 after 48 hrs by broth dilution method
- Format: functional
- condition: ATCC MYA-3631, 48 h
Binary call on MIC with cut-off 7 µM: strictly below means 1.0, and equality or higher means 0.0.

Use these answered entries as a reference point.
- compound: "CCCCCCCCCCCCCCN1CCNCC1"
  category: 1.0
- compound: "CCCCCCCCCCCN1CCN(CC(O)(Cn2cncn2)c2ccc(F)cc2F)CC1 (stereo not given)"
  category: 1.0
- compound: "CCCCCCCCCN1CCN(CC(O)(Cn2cncn2)c2ccc(F)cc2F)CC1 (stereo not given)"
  category: 1.0
- compound: "OC(CNCCN1CCOCC1)(Cn1cncn1)c1ccc(F)cc1F (stereo not given)"
  category: 0.0
- compound: "CCCCCCCCCN1CCNCC1"
  category: 0.0
- compound: "CCCCCN1CCN(CC(O)(Cn2cncn2)c2ccc(F)cc2F)CC1 (stereo not given)"
  category: 0.0

Threshold test, MIC < 7 µM: CCCCCCCCCCCCCCN1CCOCC1
0.0

# repeat for CCCCCCCCN1CCNCC1
0.0

# repeat for CCCCCCCCCCCCCCN1CCN(CC(O)(Cn2cncn2)c2ccc(F)cc2F)CC1 (stereo not given)
1.0

# repeat for CCCCCCCCN1CCN(CC(O)(Cn2cncn2)c2ccc(F)cc2F)CC1 (stereo not given)
1.0

# repeat for CN1CCNCC1
0.0

# repeat for CCCCCCCCCCN1CCN(CC(O)(Cn2cncn2)c2ccc(Cl)cc2Cl)CC1 (stereo not given)
0.0

* * *

- experiment-summary: Cytotoxicity against human BEAS2B cells assessed as cell survival at 7.8 ug/mL after 24 hrs by resazurin-based fluorescence assay
- condition: BEAS-2B cells, read-out: Survival
measure-name: viability at 24 h, 7.8 ug/mL

Would you mind telling me what viability at 24 h, 7.8 ug/mL value was observed for CCCCCCCCCCCCN1CCN(CC(O)(Cn2cncn2)c2ccc(F)cc2F)CC1 (stereo unspecified) ?
< 40%

* * *

- System: Aspergillus terreus
- experiment-summary: Antifungal activity against Aspergillus terreus ATCC MYA-3633 after 48 hrs by broth dilution method
- Assay type: functional
- condition: Aspergillus terreus, ATCC MYA-3633, 48 h
For each of the molecules below, state its MIC.
Numbers only, in µM.

Consider the following illustrative entries.
- molecule: "CCCCCCCCCCCCCN1CCN(CC(O)(Cn2cncn2)c2ccc(F)cc2F)CC1 (configuration not stated)"
  value-unit: "µM"
  value: 1.9
- molecule: "CCCCCCCCCCCCCCN1CCNCC1"
  value-unit: "µM"
  value: 3.5
- molecule: "CCCCCCCCN1CCN(CC(O)(Cn2cncn2)c2ccc(F)cc2F)CC1 (configuration not stated)"
  value-unit: "µM"
  value: 9

The record that follows has no MIC shown yet.
Would you mind telling me what MIC value was observed for CCCCCCCCCCCN1CCNCC1 ?
64.8

* * *

- System: Candida albicans
- experiment-summary: Antibiofilm activity against voriconazole resistant Candida albicans ATCC 64124 sessile cells incubated for 24 hrs by XTT reduction assay
- Assay type: functional
- condition: ATCC 64124, 24 h
measure-name: MIC50 (µg/mL)
Numbers only, in µg/mL.

- molecule: "CCCCCCCCCCCCN1CCNCC1"
  value: 7.8
- molecule: "CCCCCCCCCCN1CCN(CC(O)(Cn2cncn2)c2ccc(Cl)cc2Cl)CC1 (configuration not stated)"
  value: 15.6

Consider the following items and state reported MIC50 for each.
1. CCCCCCCCCCN1CCN(CC(O)(Cn2cncn2)c2ccc(F)cc2F)CC1 (configuration not stated)
2. C[C@@H](c1ncncc1F)[C@](O)(Cn1cncn1)c1ccc(F)cc1F [VORICONAZOLE]

15.6
62.5

* * *

- Test system: Pichia kudriavzevii
- experiment-summary: Antifungal activity against Candida krusei ATCC 6258 after 48 hrs by broth dilution method
- Format: functional
- condition: Pichia kudriavzevii, ATCC 6258, 48 h
measure-name: MIC

Consider the following illustrative entries.
- molecule: "OC(CNCCN1CCOCC1)(Cn1cncn1)c1ccc(F)cc1F (configuration not stated)"
  MIC: "> 85.2 µM"
- molecule: "CCCCCN1CCN(CC(O)(Cn2cncn2)c2ccc(F)cc2F)CC1 (configuration not stated)"
  MIC: "> 79.5 µM"
- molecule: "CCCCCCCCN1CCNCC1"
  MIC: "> 158 µM"
- molecule: "CCCCCCCCCCCCCCN1CCOCC1"
  MIC: "> 110 µM"
- molecule: "OC(CN1CCOCC1)(Cn1cncn1)c1ccc(F)cc1F (configuration not stated)"
  MIC: "> 96.5 µM"

Consider the following items and state reported MIC for each.
1. CCCCCN1CCNCC1
2. Fc1ccc(C2(Cn3cncn3)CO2)c(F)c1 (configuration not stated)
3. CCCCCCCCCCCCN1CCN(CC(O)(Cn2cncn2)c2ccc(F)cc2F)CC1 (configuration not stated)
4. CN1CCNCC1
5. CCCCCCCCCCCCN1CCN(CC(O)(Cn2cncn2)c2ccc(Cl)cc2Cl)CC1 (configuration not stated)
6. CC[C@H](C)C[C@H](C)CCCCCCCCC(=O)N[C@H]1C[C@@H](O)[C@@H](NCCN)NC(=O)[C@@H]2[C@@H](O)CCN2C(=O)[C@H]([C@H](O)CCN)NC(=O)[C@H]([C@H](O)[C@@H](O)c2ccc(O)cc2)NC(=O)[C@@H]2C[C@@H](O)CN2C(=O)[C@H]([C@@H](C)O)NC1=O
7. CCCCCCCCCCCCCN1CCN(CC(O)(Cn2cncn2)c2ccc(F)cc2F)CC1 (configuration not stated)

1: > 200 µM; 2: > 132 µM; 3: 0.98 µM; 4: > 312 µM; 5: 3.7 µM; 6: 0.4 µM; 7: 1.9 µM

* * *

- System: Candida albicans
- experiment-summary: Antifungal activity against itraconazole and fluconazole resistant Candida albicans ATCC MYA-1003 after 48 hrs by broth dilution method
- Format: functional
- condition: Candida albicans, ATCC MYA-1003, 48 h
For each of the molecules below, state its MIC.

Consider the following illustrative entries.
- molecule: "CCCCCCCCN1CCN(CC(O)(Cn2cncn2)c2ccc(F)cc2F)CC1 (centres undefined)"
  MIC: "2.2 to 71.9 µM"
- molecule: "CCCCCCCCCCCCCCN1CCOCC1"
  MIC: "> 110 µM"
- molecule: "Fc1ccc(C2(Cn3cncn3)CO2)c(F)c1 (centres undefined)"
  MIC: "> 132 µM"

Consider the following items and state reported MIC for each.
1. CCCCCN1CCNCC1
2. CCCCCCCCN1CCNCC1
3. CCCCCN1CCN(CC(O)(Cn2cncn2)c2ccc(F)cc2F)CC1 (centres undefined)
4. CCCCCCCCCN1CCNCC1
5. OC(CNCCN1CCOCC1)(Cn1cncn1)c1ccc(F)cc1F (centres undefined)

1. > 200 µM
2. > 158 µM
3. > 79.5 µM
4. > 147 µM
5. > 85.2 µM

Would you mind telling me what MIC value was observed for CN1CCNCC1 [METHYLPIPERAZINE] ?
> 312 µM
